- subject of test: UniProt:Q8GN86
- Sequence (Q8GN86 1-504): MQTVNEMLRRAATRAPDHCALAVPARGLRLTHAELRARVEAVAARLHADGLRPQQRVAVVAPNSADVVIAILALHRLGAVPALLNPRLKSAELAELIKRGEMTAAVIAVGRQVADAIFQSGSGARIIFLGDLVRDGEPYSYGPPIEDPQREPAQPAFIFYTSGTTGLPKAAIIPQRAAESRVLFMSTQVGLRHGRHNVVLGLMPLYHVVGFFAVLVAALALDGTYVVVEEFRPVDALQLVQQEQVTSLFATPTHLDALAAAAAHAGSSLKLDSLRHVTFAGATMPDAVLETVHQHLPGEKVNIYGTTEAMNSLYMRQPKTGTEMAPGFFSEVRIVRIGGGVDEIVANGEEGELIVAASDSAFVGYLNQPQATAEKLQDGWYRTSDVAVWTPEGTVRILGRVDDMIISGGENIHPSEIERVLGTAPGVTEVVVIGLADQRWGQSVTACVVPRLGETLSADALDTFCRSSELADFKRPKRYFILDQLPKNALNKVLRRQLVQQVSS
- experiment notes: direct spectrophotometric assay at […] nm, inhibition kinetics
- Format: biochemical
assay endpoint: Ki
The answer consists of two parts: a number and, after it, its unit.

Recorded Ki (compound Nc1ncnc2c1ncn2[C@@H]1O[C@H](COP(=O)(O)O)[C@@H](O)[C@H]1O [AMP] ): 120 µM

----------
- subject of test: 4-chlorobenzoate:CoA ligase (CBL; CBAL) (Alcaligenes sp. AL3007, UniProt Q8GN86)
- Sequence (Q8GN86 1-504): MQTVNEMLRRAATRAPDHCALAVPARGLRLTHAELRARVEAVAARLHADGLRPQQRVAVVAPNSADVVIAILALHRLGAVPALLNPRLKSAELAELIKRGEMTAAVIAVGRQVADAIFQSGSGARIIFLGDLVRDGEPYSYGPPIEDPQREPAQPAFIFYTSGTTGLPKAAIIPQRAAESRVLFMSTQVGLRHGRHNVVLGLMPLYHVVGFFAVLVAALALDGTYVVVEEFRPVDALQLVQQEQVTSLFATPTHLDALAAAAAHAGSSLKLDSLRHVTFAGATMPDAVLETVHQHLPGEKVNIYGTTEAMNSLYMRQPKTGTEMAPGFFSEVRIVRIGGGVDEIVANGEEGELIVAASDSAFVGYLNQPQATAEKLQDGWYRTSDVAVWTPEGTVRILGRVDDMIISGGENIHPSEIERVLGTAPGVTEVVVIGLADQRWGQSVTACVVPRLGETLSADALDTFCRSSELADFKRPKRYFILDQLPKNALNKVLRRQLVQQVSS
- experiment notes: coupled AMP-forming assay, inhibition kinetics
- Format: biochemical
assay endpoint: Ki (µM)
Numbers only, in µM.

compound: CC(C)(COP(=O)(O)OP(=O)(O)OC[C@H]1O[C@@H](n2cnc3c(N)ncnc32)[C@H](O)[C@@H]1OP(=O)(O)O)[C@@H](O)C(=O)NCCC(=O)NCCSCc1ccc(Cl)cc1
subject of test: 4-chlorobenzoate:CoA ligase (CBL; CBAL) (Alcaligenes sp. AL3007, UniProt Q8GN86)
assay endpoint: Ki
observed result: 45
//
compound: CC(C)(COP(=O)(O)OP(=O)(O)OC[C@H]1O[C@@H](n2cnc3c(N)ncnc32)[C@H](O)[C@@H]1OP(=O)(O)O)[C@@H](O)C(=O)NCCC(=O)NCCSCC(=O)c1ccc(Cl)cc1
subject of test: 4-chlorobenzoate:CoA ligase (CBL; CBAL) (Alcaligenes sp. AL3007, UniProt Q8GN86)
assay endpoint: Ki
observed result: 21

Record for `O=P(O)(O)OP(=O)(O)O` under target or system 4-chlorobenzoate:CoA ligase (CBL; CBAL) (Alcaligenes sp. AL3007, UniProt Q8GN86): Ki reported as 95

Source: paper PMC3694354
